All values here come from patent EP1247803A2.

// values below are reported Fik Kinase %Inhibition
target: FLK-1 receptor (Mus musculus, UniProt P35918); construct: expressed in transfected cells; host or cells: NIH3T3 C7#3; experiment: FLK-1 ELISA (kinase activity of the FLK-1 receptor in FLK-1/NIH3T3 cells, VEGF stimulated); type: cell-based
Sequence (P35918 20-1345): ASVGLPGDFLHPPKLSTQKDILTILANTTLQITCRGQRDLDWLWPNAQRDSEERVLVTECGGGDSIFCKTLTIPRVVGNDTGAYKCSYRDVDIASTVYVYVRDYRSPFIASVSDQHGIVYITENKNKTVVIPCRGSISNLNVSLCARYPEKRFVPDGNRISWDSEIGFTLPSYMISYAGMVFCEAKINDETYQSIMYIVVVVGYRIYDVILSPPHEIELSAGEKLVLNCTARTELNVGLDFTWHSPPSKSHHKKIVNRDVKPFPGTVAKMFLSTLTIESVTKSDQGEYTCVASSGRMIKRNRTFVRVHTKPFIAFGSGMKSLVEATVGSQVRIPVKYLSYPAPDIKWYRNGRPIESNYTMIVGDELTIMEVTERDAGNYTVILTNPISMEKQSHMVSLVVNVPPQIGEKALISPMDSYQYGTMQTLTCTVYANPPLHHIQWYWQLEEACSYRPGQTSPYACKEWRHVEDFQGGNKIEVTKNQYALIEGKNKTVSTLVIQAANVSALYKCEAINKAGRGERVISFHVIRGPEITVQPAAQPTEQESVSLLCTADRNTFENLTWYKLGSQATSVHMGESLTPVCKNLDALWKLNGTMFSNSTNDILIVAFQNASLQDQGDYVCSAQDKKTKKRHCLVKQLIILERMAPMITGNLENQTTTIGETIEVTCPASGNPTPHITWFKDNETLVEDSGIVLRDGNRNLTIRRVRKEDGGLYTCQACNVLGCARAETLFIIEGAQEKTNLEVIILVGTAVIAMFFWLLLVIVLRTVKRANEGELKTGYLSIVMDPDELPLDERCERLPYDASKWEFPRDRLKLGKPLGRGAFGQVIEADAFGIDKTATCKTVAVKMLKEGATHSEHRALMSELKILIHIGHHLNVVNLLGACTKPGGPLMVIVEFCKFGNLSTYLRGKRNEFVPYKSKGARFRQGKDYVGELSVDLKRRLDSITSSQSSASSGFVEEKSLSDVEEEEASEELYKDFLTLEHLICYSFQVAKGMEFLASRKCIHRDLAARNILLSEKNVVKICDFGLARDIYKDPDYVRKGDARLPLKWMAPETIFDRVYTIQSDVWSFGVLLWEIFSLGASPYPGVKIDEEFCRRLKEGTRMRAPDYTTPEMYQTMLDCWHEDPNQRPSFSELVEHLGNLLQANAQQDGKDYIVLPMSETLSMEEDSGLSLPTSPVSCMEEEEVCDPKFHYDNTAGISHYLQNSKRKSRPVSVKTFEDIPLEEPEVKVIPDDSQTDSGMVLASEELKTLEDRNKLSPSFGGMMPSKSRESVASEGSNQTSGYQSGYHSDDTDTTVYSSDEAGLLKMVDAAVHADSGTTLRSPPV
# number only, unit % dropped from output

Example cases with answers are listed next.
Prompt line: Bench note: what Fik Kinase %Inhibition did CCOc1cccc(C=C2C(=O)Nc3ccc(S(=O)(=O)NC)cc32)c1O [10734/D02] show?
Response line: -11.5

Prompt line: Bench note: what Fik Kinase %Inhibition did CSc1ccc(C=C2C(=O)Nc3ccc(Br)c(C)c32)s1 [10720/C07] show?
Response line: 20.7

Prompt line: Bench note: what Fik Kinase %Inhibition did CNS(=O)(=O)c1ccc2c(c1)C(=Cc1cc(O)ccc1O)C(=O)N2 [10727/D10] show?
Response line: 11.4

Prompt line: Bench note: what Fik Kinase %Inhibition did O=C1Nc2ccc(S(=O)(=O)N3CCOCC3)cc2C1=Cc1ccc(F)cc1Cl [10719/F09] show?
Response line: -6.5

Prompt line: Bench note: what Fik Kinase %Inhibition did CCCCN(CCCC)c1ccc(C=C2C(=O)Nc3ccc(CCCl)cc32)cc1 [10722/G10] show?
Response line: -1.7

Next:
Prompt line: Bench note: what Fik Kinase %Inhibition did CNS(=O)(=O)c1ccc2c(c1)C(=CC1CC(OC)OC1OC)C(=O)N2 (centres unmarked) [10730/D10] show?
Response line: -15.3

Prompt line: Bench note: what Fik Kinase %Inhibition did CNS(=O)(=O)c1ccc2c(c1)C(=Cc1cn(C(C)=O)c3ccccc13)C(=O)N2 [10730/D05] show?
Response line: 11.9

Prompt line: Bench note: what Fik Kinase %Inhibition did O=C1Nc2ccc(I)cc2C1=Cc1ccc(Br)o1 [10726/B05] show?
Response line: 13.2

----------
target: UniProtKB P09619; assay: PDGF-R ELISA; type: cell-based
Sequence (P09619 33-1106, species assumed): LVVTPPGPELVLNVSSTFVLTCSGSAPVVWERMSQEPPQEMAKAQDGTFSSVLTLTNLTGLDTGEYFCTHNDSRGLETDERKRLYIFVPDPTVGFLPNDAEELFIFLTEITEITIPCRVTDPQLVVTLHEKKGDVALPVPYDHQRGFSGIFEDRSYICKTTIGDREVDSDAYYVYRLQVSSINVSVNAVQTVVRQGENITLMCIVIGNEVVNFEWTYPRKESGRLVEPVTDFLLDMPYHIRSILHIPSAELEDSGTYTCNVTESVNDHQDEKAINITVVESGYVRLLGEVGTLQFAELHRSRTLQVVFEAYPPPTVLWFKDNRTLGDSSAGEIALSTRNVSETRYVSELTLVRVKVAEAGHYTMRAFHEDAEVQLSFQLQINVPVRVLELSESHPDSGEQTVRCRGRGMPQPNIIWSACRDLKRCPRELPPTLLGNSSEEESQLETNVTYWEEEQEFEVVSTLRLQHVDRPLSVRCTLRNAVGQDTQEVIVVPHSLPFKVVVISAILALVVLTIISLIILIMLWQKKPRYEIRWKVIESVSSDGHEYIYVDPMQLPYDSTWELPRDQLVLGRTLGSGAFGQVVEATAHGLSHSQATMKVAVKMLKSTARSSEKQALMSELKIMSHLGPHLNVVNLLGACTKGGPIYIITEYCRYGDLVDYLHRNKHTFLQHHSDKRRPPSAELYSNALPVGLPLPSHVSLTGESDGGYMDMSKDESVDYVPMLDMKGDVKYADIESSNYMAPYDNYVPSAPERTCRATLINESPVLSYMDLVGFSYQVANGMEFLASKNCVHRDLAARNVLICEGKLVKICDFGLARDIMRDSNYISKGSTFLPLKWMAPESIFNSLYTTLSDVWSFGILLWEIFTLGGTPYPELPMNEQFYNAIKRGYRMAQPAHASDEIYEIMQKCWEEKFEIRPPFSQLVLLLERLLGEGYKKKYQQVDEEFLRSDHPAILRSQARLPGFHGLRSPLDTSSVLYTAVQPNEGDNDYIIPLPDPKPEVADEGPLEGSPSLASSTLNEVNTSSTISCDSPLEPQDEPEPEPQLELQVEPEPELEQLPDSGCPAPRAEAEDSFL
testReadout: PDGF Kinase %Inhibition (%)
# number only, unit % dropped from output

Prompt line: API: value(readout=PDGF Kinase %Inhibition, system=UniProtKB P09619) for record `CC(C)(C)c1cc(C=C2C(=O)Nc3ccc(CCCl)cc32)cc(Cl)c1OCc1ccccc1`
Response line: 20.4

Prompt line: API: value(readout=PDGF Kinase %Inhibition, system=UniProtKB P09619) for record `COc1ccc(C=C2C(=O)Nc3c(Br)cc(Br)cc32)c(OC)c1OC`
Response line: -23.1

Prompt line: API: value(readout=PDGF Kinase %Inhibition, system=UniProtKB P09619) for record `COc1c(O)ccc(C=C2C(=O)Nc3ccc(I)cc32)c1[N+](=O)[O-]`
Response line: 23.7

Prompt line: API: value(readout=PDGF Kinase %Inhibition, system=UniProtKB P09619) for record `COC(=O)Cc1c(Cl)[nH]c(C=C2C(=O)Nc3ccc(CCCl)cc32)c1C(=O)OC`
Response line: 43.8

Prompt line: API: value(readout=PDGF Kinase %Inhibition, system=UniProtKB P09619) for record `Cc1c(Br)ccc2c1C(=Cc1cccc(Oc3ccccc3)c1)C(=O)N2`
Response line: 3.1

Next:
Prompt line: API: value(readout=PDGF Kinase %Inhibition, system=UniProtKB P09619) for record `Cc1csc2sc(C=C3C(=O)Nc4ccc(CCCl)cc43)c(C)c12`
Response line: -29.1

Prompt line: API: value(readout=PDGF Kinase %Inhibition, system=UniProtKB P09619) for record `CC(C)(C)c1ccc(C=C2C(=O)Nc3ccc(I)cc32)cc1`
Response line: 7.7

Prompt line: API: value(readout=PDGF Kinase %Inhibition, system=UniProtKB P09619) for record `COc1cccc(C=C2C(=O)Nc3ccc(Br)c(C)c32)c1OC`
Response line: 22.4

Prompt line: API: value(readout=PDGF Kinase %Inhibition, system=UniProtKB P09619) for record `CNS(=O)(=O)c1ccc2c(c1)C(=Cc1cc(O)c(O)c(Br)c1)C(=O)N2`
Response line: 31.8

Prompt line: API: value(readout=PDGF Kinase %Inhibition, system=UniProtKB P09619) for record `CC(C)c1cc(C=C2C(=O)Nc3c(Br)cc(Br)cc32)cc(C(C)C)c1O`
Response line: 30.7

Prompt line: API: value(readout=PDGF Kinase %Inhibition, system=UniProtKB P09619) for record `CC(C)c1ccc2occ(C=C3C(=O)Nc4c(Br)cc(Br)cc43)c(=O)c2c1`
Response line: 14.1

Prompt line: API: value(readout=PDGF Kinase %Inhibition, system=UniProtKB P09619) for record `N#Cc1cccc(C=C2C(=O)Nc3ccc(I)cc32)c1`
Response line: 14.4
